In this section we review reported IC50 values for a set of molecules.
target: Prostaglandin G/H synthase 1 (Homo sapiens, UniProt P23219); assay: In vitro inhibitory concentration against Prostaglandin G/H synthase 1 in human whole blood assay
Sequence (P23219 whole entry): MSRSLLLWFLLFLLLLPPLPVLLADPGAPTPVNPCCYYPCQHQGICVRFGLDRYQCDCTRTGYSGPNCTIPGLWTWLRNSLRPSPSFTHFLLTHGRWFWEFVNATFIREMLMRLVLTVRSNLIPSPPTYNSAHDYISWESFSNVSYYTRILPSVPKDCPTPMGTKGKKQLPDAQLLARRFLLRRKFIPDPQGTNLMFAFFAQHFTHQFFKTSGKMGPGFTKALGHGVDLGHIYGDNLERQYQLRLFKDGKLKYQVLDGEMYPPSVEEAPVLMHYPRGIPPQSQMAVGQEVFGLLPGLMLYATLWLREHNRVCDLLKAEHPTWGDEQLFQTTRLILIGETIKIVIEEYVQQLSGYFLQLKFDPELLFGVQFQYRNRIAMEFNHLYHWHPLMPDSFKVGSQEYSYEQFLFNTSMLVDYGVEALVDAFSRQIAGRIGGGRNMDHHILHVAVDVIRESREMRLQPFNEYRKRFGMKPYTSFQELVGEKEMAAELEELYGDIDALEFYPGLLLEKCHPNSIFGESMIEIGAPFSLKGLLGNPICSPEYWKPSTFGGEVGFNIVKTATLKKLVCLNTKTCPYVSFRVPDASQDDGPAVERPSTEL

// solved cases for IC50 follow
>>> observed("COc1cc(OC)c(-c2noc(C)c2-c2ccccc2)c(OC)c1Cl")
"> 100 µM"
>>> observed("COc1cc(OC)c(-c2noc(C)c2-c2ccc(S(N)(=O)=O)cc2)c(OC)c1Cl")
"> 100 µM"
>>> observed("Cc1cc(C)c(-c2noc(C)c2-c2ccccc2)c(C)c1")
"> 100 µM"
>>> observed("COc1cc(OC)c(-c2noc(C)c2-c2ccccc2)c(OC)c1")
"> 100 µM"
>>> observed("Cc1cc(C)c(S(N)(=O)=O)c(C)c1-c1noc(C)c1-c1ccc(S(N)(=O)=O)cc1")
"> 100 µM"
>>> observed("Cc1onc(-c2ccc(Cl)o2)c1-c1ccc(S(N)(=O)=O)cc1")
"> 100 µM"

Alright, here's another molecule for you.
Exercise: Lab note: need IC50 for Cc1cc(C)c(S(N)(=O)=O)c(C)c1-c1noc(C)c1-c1ccccc1 on Prostaglandin G/H synthase 1 (Homo sapiens, UniProt P23219), anyone have it?
Key: > 100 µM
